Target: T1, TNFR1 (Homo sapiens, UniProt P19438)
T1 chain: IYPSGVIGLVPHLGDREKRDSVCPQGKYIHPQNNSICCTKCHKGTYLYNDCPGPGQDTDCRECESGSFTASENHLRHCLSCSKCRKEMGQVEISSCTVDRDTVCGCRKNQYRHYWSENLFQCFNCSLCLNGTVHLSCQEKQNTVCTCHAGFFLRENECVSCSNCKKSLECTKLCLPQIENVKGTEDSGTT
Experiment: yeast display SC50
RECORDED_ENDPOINT: apparent Kd (screen) (nM)

(P) E19D (designed binder) SMEEEVEKAAKEYEKKKKDAIEKHLEKLKAKDKEAAERFLKELEEAAKEYAKDEAKTMSEEEAKRRAKKYKEKVLLSELSEEEQKEIKEAEEKLVRTILKYVEEAAK
(Q) A63K (designed binder) SMEEEVEKAAKEYEKKKKEAIEKHLEKLKAKDKEAAERFLKELEEAAKEYAKDEAKTMSEEEKKRRAKKYKEKVLLSELSEEEQKEIKEAEEKLVRTILKYVEEAAK
(R) D53I (designed binder) SMEEEVEKAAKEYEKKKKEAIEKHLEKLKAKDKEAAERFLKELEEAAKEYAKIEAKTMSEEEAKRRAKKYKEKVLLSELSEEEQKEIKEAEEKLVRTILKYVEEAAK
Put the listed items above in order, lowest apparent Kd (screen) first. Put the labels in the requested order and write them down. P, Q, R
(P: 0.446 nM, Q: 8.56 nM, R: 12.5 nM)

Entry source: paper PMC12416549
